- System: HCT-116
- Method Description: NCI tumour cell line growth inhibition, 48 h
The source made the active and inactive calls. Cut-off read from the data, not from the text of the source: active = GI50 up to about 1.1 µM and inactive = higher.
Please reply with one of these outcomes: active, inactive

Before answering, review these 10 worked examples.
# Compound, Classification
rows = [
    ("O=C(N(C1=CCCC1)N(c1ccccc1)c1ccccc1)C(F)(F)F", "inactive"),
    ("Cc1nc(=O)n2c(C)n[nH]c2c1C(=O)Nc1cc(Cl)cc(Cl)c1", "inactive"),
    ("Cc1ccccc1-n1c(C)nc2c1C(=O)c1ccccc1C2=O", "inactive"),
    ("Cc1cc(O)c2c(c1)C[C@@H](O)C1=C2C(=O)c2c(O)ccc(OC3CC(O)C(OC4CC(OC5CCC(OC6CC(O)C(OC7CC(OC8CCC(O)C(C)O8)C(O)C(C)O7)C(C)O6)C(C)O5)C(O)C(C)O4)C(C)O3)c2C1=O (stereo not given in full)", "active"),
    ("COc1ccccc1NC(=O)C1=C(C)NC(C)=C(C(=O)Nc2ccccc2OC)C1/C=C/c1ccccc1", "inactive"),
    ("COC1OC(Cn2cc([N+](=O)[O-])nc2C)C(O)C(O)C1O (stereo not given)", "inactive"),
    ("CC(C)C(C(=O)O)N1C(=O)c2ccccc2C1=O (stereo not given)", "inactive"),
    ("Cn1c2n/c(=N\\c3ccc(Cl)cc3)[n+]3ccc4ccccc4c3c-2c([O-])n1-c1ccccc1", "inactive"),
    ("CCOC(=S)SCC(=O)O", "inactive"),
    ("Cc1ccc(NC(=O)c2nc(S)nc(N)c2-c2ccccc2C)cc1C", "inactive"),
]

Assay outcome for CN(CCCNC(=O)c1nn(-c2ccc(Cl)cc2Cl)c2c1ccc1ccccc12)CCCNC(=O)c1nn(-c2ccc(Cl)cc2Cl)c2c1ccc1ccccc12 : what was it?
inactive

Assay outcome for Cc1cc2nc(-c3cc(C(C)(C)C)c(O)c(C(C)(C)C)c3)[nH]c2cc1C : what was it?
inactive

Assay outcome for COc1ccc(/[N+]([O-])=C/c2ccccc2OC(=S)S)cc1 : what was it?
inactive

* * *

- Tested on: SK-MEL-5
- Method Description: NCI tumour cell line growth inhibition, 48 h
The source made the active and inactive calls. No stated cut-off is given here; in the data, active = GI50 up to about 1.1 µM and inactive = higher.
Please reply with one of these outcomes: active, inactive

Before answering, review these 3 worked examples.
# Compound, Classification
measured = [
    ("Oc1cn(-c2ccc(Cl)cc2)nc1-c1nnc(Nc2ccccc2)o1", "inactive"),
    ("O=C(c1ccc(Cl)cc1Cl)N(/N=C/C=C/c1ccccc1)c1nnc(-c2ccccc2)c(-c2ccccc2)n1", "inactive"),
    ("Cc1ccc(N(C(=O)Nc2ccc(F)c(Cl)c2)C2=NCC(C)S2)cc1 (configuration not stated)", "inactive"),
]

Assay outcome for O=C1CC(C(CC(=O)c2ccccc2)c2ccccc2)C(=O)c2ccccc2N1 (configuration not stated) : what was it?
inactive

Assay outcome for O=c1c2ccccc2nc(-c2ccccc2)n1NC(=S)Nc1ccc(Cl)cc1[N+](=O)[O-] : what was it?
inactive

Assay outcome for O=C(CCCN1CC=C(n2c(=O)[nH]c3ccccc32)CC1)c1cccs1 : what was it?
inactive

Assay outcome for CC(C)Oc1cccc(N2C(CCc3c[nH]c4ccc(Br)cc34)=NS(=O)(=O)c3cnccc32)c1 : what was it?
inactive

Assay outcome for NC(=O)c1nnsc1NN=O : what was it?
inactive

* * *

For each entry below, report its GI50 value.
- Test system: CCRF-CEM
- Method Description: NCI tumour cell line growth inhibition, 48 h
Activity calls are given as the source filed them. Cut-off read from the data, not from the text of the source: active = GI50 up to about 1.1 µM and inactive = higher.

# Molecule, Val
measured = [
    ("O=C(O)C(=Cc1ccc(-c2ccccc2)cc1)C(=O)O", "4.06 µM (inactive)"),
    ("COC(=O)c1cccc(OC)c1C#Cc1c(OC)cccc1OC", "> 100 µM (inactive)"),
    ("CC1CN=C(Nc2ccc(S(N)(=O)=O)cc2)S1 (stereo unspecified)", "> 100 µM (inactive)"),
    ("N#C/C(C(=O)Nc1ccccc1)=C(/N)N1CCCC1", "> 100 µM (inactive)"),
    ("CCOP(=O)(OCC)c1cc(-c2ccccc2)ccc1N", "> 100 µM (inactive)"),
    ("CC#CC(O)(C(=O)OC1CCCN(C)C1)C1=CC=CCC1 (stereo unspecified)", "> 100 µM (inactive)"),
    ("Cc1ccc(NC(=O)CC2SC(Nc3cccc(Cl)c3C)=NC2=O)cc1 (stereo unspecified)", "32.1 µM (inactive)"),
    ("NC(CCCCN/C=C1/N=C(c2ccccc2)OC1=O)C(=O)O (stereo unspecified)", "52 µM (inactive)"),
    ("COC(=O)c1c(O)ccc2c1c1c(n2CCc2ccccc2)C(=O)c2ccccc2C1=O", "12.8 µM (inactive)"),
    ("CC(=O)c1sc2c(c1OC(=O)c1ccco1)c(=O)n(-c1ccccc1)c(=S)n2-c1ccccc1", "3.93 µM (inactive)"),
]

Let's switch to this molecule now.
Entry CCCC(=O)N(C(=O)CCC)C1=C(Cl)C(=O)c2ccccc2C1=O , system CCRF-CEM: what GI50 was measured?
2.09 µM (inactive)

* * *

- Tested on: SF-268
- Method Description: NCI tumour cell line growth inhibition, 48 h
Active and inactive are the calls of the source. Rule as the data show it: active = GI50 up to about 1.1 µM and inactive = higher.
Please reply with one of these outcomes: active, inactive

# Molecule, Measurement Target, Classification
rows = [
    ("CCCC(=O)OC(OC(=O)CCC)c1ccc([N+](=O)[O-])o1", "SF-268", "inactive"),
]

Assay outcome for N#Cc1c(-c2ccccc2)c(C#N)c(=O)n(NS(=O)(=O)c2ccccc2)c1O : what was it?
inactive

Assay outcome for C=C[C@@H]1C(CO)=CCC2[C@H]1CCC1C(C)(C)C(=O)CC[C@]21C (stereo partly specified) : what was it?
inactive

Assay outcome for COc1cc(OC(=O)c2c(O)cc(O)c(O)c2C)cc(C)c1C(=O)Oc1cc(C)c(C(=O)O)c(O)c1 : what was it?
inactive

Assay outcome for COc1cc2c3c(c4cc(OC)c(OC)cc4c2cc1OC)[C@H](O)[C@@H]1CCCN1C3 : what was it?
active

Assay outcome for COc1ccc(COCC(Cn2ccnc2)OCc2ccc(C(=O)O)cc2)cc1 (stereo unspecified) : what was it?
inactive

Assay outcome for CN1CCN(CN2C(=O)C3C4C=CC(C3C2=O)C2C(=O)N(CN3CCN(C)CC3)C(=O)C42)CC1 (stereo unspecified) : what was it?
inactive

Assay outcome for COCCN1C2=CCCCC2=Nc2c(N)nc(N)nc21 : what was it?
inactive

Assay outcome for O=c1c(=O)c2cscc2c1=O : what was it?
inactive

Assay outcome for COc1c(C)c(C/C=C(\C)CCCCO)c(OC)c2ccccc12 : what was it?
inactive

Assay outcome for c1ccc(/C(=N/Nc2ccncn2)c2ccccn2)cc1 : what was it?
inactive

* * *

- Test system: EKVX
- Method Description: NCI tumour cell line growth inhibition, 48 h
Active and inactive are the calls of the source. No stated cut-off is given here; in the data, active = GI50 up to about 1.1 µM and inactive = higher.
For each entry below, report its GI50 value.

Examples with answers:
# Molecule, Val
data = [
    ("O=c1c2ccccc2nc(-c2ccccc2)n1NC1OC(CO)C(O)C(O)C1O (stereo not drawn)", "> 100 µM (inactive)"),
    ("COc1cc(/N=N\\c2ccc(OC)c(S(=O)(=O)O)c2)c(C)cc1/N=N\\c1ccc(/C=C/c2ccc(/N=[N+](/[O-])c3ccc(/C=C/c4ccc(/N=N/c5cc(C)c(/N=N\\c6ccc(OC)c(S(=O)(=O)O)c6)cc5OC)cc4S(=O)(=O)O)c(S(=O)(=O)O)c3)cc2S(=O)(=O)O)c(S(=O)(=O)O)c1", "> 100 µM (inactive)"),
]

Let's switch to this molecule now.
Give the measured GI50 of O=C1O/C(=C(\Br)c2ccc([N+](=O)[O-])cc2)c2ccccc21 .
> 100 µM (inactive)

* * *

- System: SNB-75
- Method Description: NCI tumour cell line growth inhibition, 48 h
Calls of active or inactive are those of the source. No stated cut-off is given here; in the data, active = GI50 up to about 1.1 µM and inactive = higher.
Assay Metric: GI50

Examples with answers:
# Compound, Val
data = [
    ("COc1cc(OC)c2nccc(NCCCN(C)C)c2c1[N+](=O)[O-]", "30.9 µM (inactive)"),
    ("CC1Nc2ccccc2NC1C=C(C#N)C#N (stereo not given)", "14.6 µM (inactive)"),
    ("COC(=O)/C(=N\\N)C(C(=O)C(=O)Nc1cccc([N+](=O)[O-])c1)c1nc2ccc(C(=O)c3ccccc3)cc2nc1O (stereo not given)", "> 100 µM (inactive)"),
]

Each compound below has a recorded value; state its GI50.
1. CC(C)OC(=O)c1ccc(NCC2=CC(=O)C=CC2=O)cc1
2. O=C(CCCCCC(=O)N1CC(CCl)c2ccc([N+](=O)[O-])cc21)N1CC(CCl)c2ccc([N+](=O)[O-])cc21 (stereo not given)

18.5 µM (inactive)
48.1 µM (inactive)

* * *

- Tested on: SK-MEL-2
- Method Description: NCI tumour cell line growth inhibition, 48 h
Active and inactive are the calls of the source. Cut-off read from the data, not from the text of the source: active = GI50 up to about 1.1 µM and inactive = higher.
Assay Metric: GI50

Examples with answers:
# Compound, Val
records = [
    ("CN(C)CCNC(=O)c1c2ccccc2cc2ccccc12", "8 µM (inactive)"),
    ("Cc1c2cc[n+](C)cc2c(C)c2c1[nH]c1ccc(OC(C)C)cc12", "1.66 µM (inactive)"),
    ("N#Cc1ccccc1NC(=O)C(=O)C(C(=O)c1ccccc1F)C1OC(=O)c2ccccc21 (configuration not stated)", "24.1 µM (inactive)"),
]

Each compound below has a recorded value; state its GI50.
1. CCCC(=O)N(C(=O)CCC)C1=C(Cl)C(=O)c2ccccc2C1=O
2. CCOC(=O)C1=C(C)NC(C)=C(C(=O)OCCNC(=O)c2ccc(N=[N+]=[N-])cc2)C1c1ccccc1C(F)(F)F (configuration not stated)
3. O=C(CC1(O)CCCCC1)OC1CCCC1
4. Cc1nc2nc3c(ncn3COCCO)c(O)n2c1C(c1ccccc1)(c1ccccc1)c1ccccc1

4.42 µM (inactive)
6.53 µM (inactive)
> 100 µM (inactive)
14.5 µM (inactive)

Each compound below has a recorded value; state its GI50.
1. N=C(N)SCCCN
2. CCOc1ccc(Nc2nc(N)nc(N)c2N)cc1

1: 13.2 µM (inactive); 2: 44.9 µM (inactive)

Each compound below has a recorded value; state its GI50.
1. CN1CCN(CN2C(=O)C3C4C=CC(C3C2=O)C2C(=O)N(CN3CCN(C)CC3)C(=O)C42)CC1 (configuration not stated)
2. O=C(O)C(=Cc1ccc(-c2ccccc2)cc1)C(=O)O
3. COc1ccccc1N1C(=O)CS(=O)(=O)C1c1cccc(Oc2ccccc2)c1 (configuration not stated)
4. N#Cc1[nH]c(=O)n(-c2ccc([N+](=O)[O-])cc2)c1N
5. O=c1c2ccccc2nc2[nH][nH]c(=S)n12

> 100 µM (inactive)
6.95 µM (inactive)
13 µM (inactive)
> 10 µM (inactive)
> 100 µM (inactive)
